test system: CP238; test: qHTS profiling for inhibitors of Plasmodium falciparum proliferation (AID 504749); further: nearly all actives have a fitted effect of over 60% in size; conditions: P. falciparum in erythrocytes, SYBR Green DNA, 72 h; series mostly up to 28.7 µM
Records with an inconclusive call do not appear. Activity calls are given as the source filed them. The call rests on the fitted dose curve; in most records, active means well fitted inhibition curve with a large enough effect; inconclusive means small, poorly fitted or top-dose-only effect; inactive means flat fitted curve, though single readings scatter.
Hi! Could you answer with just one of these? active, inactive

Hi, sorry to bother you, what did the test record for CNCCCC12CCC(c3ccccc31)c1ccccc12 ?
inactive

// return assay outcome for CC[N+](CC)(CC)CCOc1cccc(OCC[N+](CC)(CC)CC)c1OCC[N+](CC)(CC)CC
inactive

Test call for this molecule, please: CC(C)NCC(O)COc1ccc(CCOCC2CC2)cc1 (stereo unspecified)
inactive

Answer briefly: the call reported for CCCNCC(O)COc1ccccc1C(=O)CCc1ccccc1 (stereo unspecified) in this assay.
active

Per the assay record, what outcome was assigned to COc1ccccc1OCC(O)CN1CCN(CC(=O)Nc2c(C)cccc2C)CC1 (stereo unspecified) ?
inactive

Dear colleague, could you share the recorded outcome for Cn1c(=O)c2[nH]cnc2n(C)c1=O when you have a moment?
inactive

---

experiment: S16 Schwann cell PMP22 intronic element beta-lactamase assay (AID 624044); settings: S16 rat Schwann cells, PMP22 element beta-lactamase FRET, 24 h; series mostly up to 38.3 µM; further: nearly all actives have a fitted effect of over 15% in size
Records with an inconclusive call do not appear. Active and inactive are the calls of the source. The call rests on the fitted dose curve.
Returns: one label drawn from label 1 = active, label 0 = inactive

Observe how each entry below is paired with its result.
>  <compound>
NCCc1cnc[nH]1

>  <classAssignment>
label 0

$$$$
>  <compound>
CC(CCc1ccc(O)cc1)NCCc1ccc(O)c(O)c1 (stereo not drawn)

>  <classAssignment>
label 0

$$$$
>  <compound>
CC#C[C@]1(O)CC[C@H]2[C@@H]3CCC4=CC(=O)CCC4=C3[C@@H](c3ccc(N(C)C)cc3)C[C@@]21C

>  <classAssignment>
label 0

$$$$
>  <compound>
Nc1nnc(-c2cccc(Cl)c2Cl)c(N)n1

>  <classAssignment>
label 0

$$$$
>  <compound>
Cn1cnc2c1c(=O)[nH]c(=O)n2C

>  <classAssignment>
label 0

$$$$
>  <compound>
CC[C@@]1(O)C(=O)OCc2c1cc1n(c2=O)Cc2cc3c(CN(C)C)c(O)ccc3nc2-1

>  <classAssignment>
label 1

$$$$

GET /call?item= O=c1c(-c2ccc(O)cc2)coc2cc(O)cc(O)c12 returns the recorded outcome of this test.
label 1

Can you look up the reported call for CCOC(=O)C(C)(C)Oc1ccc(Cl)cc1 for me?
label 0

Call for entry Clc1ccccc1C(c1ccccc1)(c1ccccc1)n1ccnc1 :
label 0

---

biological target: Arylsulfatase A (Homo sapiens); experiment: qHTS screen for enhancers of Arylsulfatase A (ASA1): LOPAC Validation Assay (AID 720538); settings: ASA enzyme activity, LOPAC qHTS enhancer assay; series mostly up to 57.5 µM
Records with an inconclusive call do not appear. Calls of active or inactive are those of the source. The call rests on the fitted dose curve; in most records, active means well fitted activation curve with a large enough effect; inconclusive means small, poorly fitted or top-dose-only effect; inactive means no such curve, though single readings can be large or run the other way.
measurementType: outcome

Past entries and their recorded results:
>  <compound>
CN(C)CCCN1c2ccccc2CCc2ccc(Cl)cc21

>  <measurementType>
outcome

>  <value>
inactive

$$$$
>  <compound>
NCCc1cnc[nH]1

>  <measurementType>
outcome

>  <value>
inactive

$$$$
>  <compound>
COc1ccc(CCN(C)CCCC(C#N)(c2ccc(OC)c(OC)c2)C(C)C)cc1OC (stereo unspecified)

>  <measurementType>
outcome

>  <value>
inactive

$$$$
>  <compound>
COc1ccccc1N1CCN(CC(O)COc2cccc3ccccc23)CC1 (stereo unspecified)

>  <measurementType>
outcome

>  <value>
inactive

$$$$
>  <compound>
O=C(Nc1ccc([N+](=O)[O-])cc1Cl)c1cc(Cl)ccc1O

>  <measurementType>
outcome

>  <value>
inactive

$$$$

Query compound follows.
Please report outcome for the following compound: CC12CC3CC(C)(C1)CC(N)(C3)C2
inactive

---

test: qHTS Screen of the MIPE 4.0 Collection Against Ewings Sarcoma (RDES) (AID 1259252); settings: RD-ES Ewing sarcoma viability, CellTiter-Glo, 48 h; series mostly up to 45.8 µM; further: nearly all actives have a fitted effect of over 35% in size
Records with an inconclusive call do not appear. Active and inactive are the calls of the source. The call rests on the fitted dose curve; in most records, active means well fitted inhibition curve with a large enough effect; inconclusive means small, poorly fitted or top-dose-only effect; inactive means no such curve, though single readings can be large or run the other way.
Response enum: 1.0 = active, 0.0 = inactive

Answered cases to consult:
>  <compound>
CCOC(=O)C(C)(C)Oc1ccc(Cl)cc1

>  <classAssignment>
0.0

$$$$
>  <compound>
COc1ccc2c(c1)c(CC(=O)O)c(C)n2C(=O)c1ccc(Cl)cc1

>  <classAssignment>
1.0

$$$$
>  <compound>
CC(C)(Oc1ccc(C2CC2(Cl)Cl)cc1)C(=O)O (stereo not drawn)

>  <classAssignment>
1.0

$$$$
>  <compound>
NCCc1cnc[nH]1

>  <classAssignment>
1.0

$$$$
>  <compound>
Fc1ccc([C@@H]2CCNC[C@H]2COc2ccc3c(c2)OCO3)cc1

>  <classAssignment>
0.0

$$$$

--- query ---
Called result for CCC1(c2ccccc2)C(=O)NCNC1=O
1.0

---

tested on: TAB113; assay: qHTS profiling for inhibitors of Plasmodium falciparum proliferation (AID 504749); further: nearly all actives have a fitted effect of over 60% in size; conditions: P. falciparum in erythrocytes, SYBR Green DNA, 72 h; series mostly up to 28.7 µM
Results filed as inconclusive are left out. The source made the active and inactive calls. The call rests on the fitted dose curve; in most records, active means well fitted inhibition curve with a large enough effect; inconclusive means small, poorly fitted or top-dose-only effect; inactive means flat fitted curve, though single readings scatter.
Choose the fitting class; nothing outside active, inactive is accepted.

Some solved entries appear below for comparison.
>  <compound>
CC[N+](CC)(CC)CCOc1cccc(OCC[N+](CC)(CC)CC)c1OCC[N+](CC)(CC)CC

>  <classAssignment>
inactive

$$$$
>  <compound>
COc1ccccc1OCCNCC(O)COc1cccc2[nH]c3ccccc3c12 (configuration not stated)

>  <classAssignment>
active

$$$$
>  <compound>
Cn1cnc2c1c(=O)[nH]c(=O)n2C

>  <classAssignment>
inactive

$$$$

Each compound tested received a call. Report the one for Nc1nnc(-c2cccc(Cl)c2Cl)c(N)n1 .
inactive

Entry COc1ccc(CCN(C)CCCC(C#N)(c2ccc(OC)c(OC)c2)C(C)C)cc1OC (configuration not stated) : call = ?
inactive

Called result for Cc1cc(C(C)(C)C)cc(C)c1CC1=NCCN1
inactive

Which outcome did this test record for the compound C[C@](N)(Cc1ccc(O)c(O)c1)C(=O)O ?
inactive

Each compound tested received a call. Report the one for COC(=O)Nc1nc2ccc(C(=O)c3cccs3)cc2[nH]1 .
inactive

Tell me the recorded outcome of this test for CN(C)CCOC(c1ccccc1)c1ccccc1 .
inactive

Give the logged outcome of this assay for the following compound: Cn1c(=O)c2[nH]cnc2n(C)c1=O
inactive

Please indicate how the test categorized NCCCCCC(=O)O .
inactive

What classification did Cc1cc(C(C)(C)C)c(O)c(C)c1CC1=NCCN1 end up with in this test?
inactive

---

assay: Quantitative High-Throughput drug screen in 47 multiple myeloma cell lines against the NCATS MIPE library collection: MOLP8_DSMZ cell viability assay (AID 1918977); settings: MOLP8 myeloma viability, CellTiter-Glo ATP luminescence, 48 h; series mostly up to 45.8 µM; further: nearly all actives have a fitted effect of over 45% in size
Records with an inconclusive call do not appear. Active and inactive are the calls of the source. The call rests on the fitted dose curve; in most records, active means well fitted cell-killing curve with a large enough effect; inconclusive means small, poorly fitted or top-dose-only effect, or effect the other way; inactive means no such curve, though single readings can be large or run the other way.
Can you answer with just one of these options? true = active, false = inactive

>  <molecule>
Cc1cc(C(C)(C)C)cc(C)c1CC1=NCCN1

>  <classAssignment>
false

$$$$

Give the logged outcome of this assay for the following molecule: NC(CO)C(=O)NNCc1ccc(O)c(O)c1O (stereo unspecified)
true

Called result for COc1ccccc1N1CCN(CC(O)COc2cccc3ccccc23)CC1 (stereo unspecified)
false

Query: recorded result category for CC#C[C@]1(O)CC[C@H]2[C@@H]3CCC4=CC(=O)CCC4=C3[C@@H](c3ccc(N(C)C)cc3)C[C@@]21C in this test
true

Kindly provide the recorded test outcome for the following molecule: Cn1c(=O)c2[nH]cnc2n(C)c1=O
false

Dear colleague, could you share the recorded outcome for COc1ccc2[nH]cc(CCNC(C)=O)c2c1 when you have a moment?
false

Can you look up the reported call for C[C@](N)(Cc1ccc(O)c(O)c1)C(=O)O for me?
true

For this molecule, state the assay outcome: O=C(C1CCCCC1)N1CC(=O)N2CCc3ccccc3C2C1 (stereo unspecified)
false

---

biological target: Cytochrome P450 1A2 (Homo sapiens); test: p450-cyp1a2 (AID 410); conditions: recombinant CYP1A2, luciferin-ME demethylation, luminescence; series mostly up to 57 µM
Inconclusive results are not listed. Activity calls are given as the source filed them. Calls come from the whole dose curve.
Field 'call' accepts yes = active, no = inactive

Observe how each entry below is paired with its result.
>  <compoundSmiles>
COc1ccc2c(c1)c(CC(=O)O)c(C)n2C(=O)c1ccc(Cl)cc1

>  <experimentalSystem>
Cytochrome P450 1A2 (Homo sapiens)

>  <classAssignment>
yes

$$$$
>  <compoundSmiles>
Nc1nc2c(ncn2COC(CO)CO)c(=O)[nH]1

>  <experimentalSystem>
Cytochrome P450 1A2 (Homo sapiens)

>  <classAssignment>
no

$$$$
>  <compoundSmiles>
N[C@@H](Cc1c[nH]c2ccc(O)cc12)C(=O)O

>  <experimentalSystem>
Cytochrome P450 1A2 (Homo sapiens)

>  <classAssignment>
no

$$$$

Record lookup: outcome of this test for O=c1[nH]cc(F)c(=O)[nH]1 ?
no

Look up the recorded call for O=C1N(c2ccccc2)c2ccccc2C1(Cc1ccncc1)Cc1ccncc1 in this test.
yes

How did this test come out for COc1nc(C)nc(Cl)c1NC1=NCCN1 ?
no
